Listed next: entries and their corresponding pKd.
SYSTEM_TESTED: T1, recombinant His-tagged human FRα (human, UniProt P15328 25-234)
T1 construct: Bought protein; also called hFRα; FRα-HIS
MEASUREMENT_DESCRIPTION: BLI, supernatant, n=1
pKd: −log10 of the molar value.

| BINDER | pKd |
| --- | --- |
| v23820 (antibody, human IgG1, kappa, V domains shown, FSA format; rabbit variable domains, human IgG1/kappa constant domains; also called 8K22 rabbit-human parental chimera) VH: QEQLVESGGGLVQPEGSLTLTCKASGFTISNNYYMCWVRQAPGKGLEWIACIYGGISGRTYYASWAKGRFTISKTSSTTVTLQMTSLTAADTATYFCVRGYVGTSNLWGPGTLVTVSS VL: DIVMTQTPASVEAAVGGTVTIKCQASQSIYSSLAWYQQKPGQSPKLLIYDASHLASGVPSRFSGSRYGTEFTLTISGVQCDDAATYYCQGGWYSSAATYVPNTFGGGTEVVVKR | 8.23 |
| v23815 (antibody, human IgG1, kappa, V domains shown, also called humanized 8K22 H2L5) VH: EVQLVESGGGLVQPGGSLRLSCAASGFTISNNYYMCWVRQAPGKGLEWIACIYGGISGRTYYADSAKGRFTISKDNSKNTVYLQMNSLRAEDTAVYYCVRGYVGTSNLWGQGTLVTVSS VL: DIQMTQSPSSLSASVGDRVTITCQASQSIYSSLAWYQQKPGKAPKLLIYDASHLASGVPSRFSGSRYGTDFTLTISSVQPEDAATYYCQGGWYSSAATYVPNTFGGGTKVEVKR | 7.78 |
| v23807 (antibody, human IgG1, kappa, V domains shown, also called humanized 8K22 H4L3) VH: EVQLVESGGGLVQPGGSLRLSCAASGFTISNNYYMCWVRQAPGKGLEWIACIYGGISGRTYYADSAKGRFTISKDSSNTVYLQMNSLRAEDTAVYYCVRGYVGTSNLWGQGTLVTVSS VL: DIQMTQSPSSLSASVGDRVTITCQASQSIYSSLAWYQQKPGKAPKLLIYDASHLASGVPSRFSGSRYGTDFTLTISSVQPEDFATYYCQGGWYSSAATYVPNTFGGGTKVEVKR | 7.96 |
| v23817 (antibody, human IgG1, kappa, V domains shown, also called humanized 8K22 H4L5) VH: EVQLVESGGGLVQPGGSLRLSCAASGFTISNNYYMCWVRQAPGKGLEWIACIYGGISGRTYYADSAKGRFTISKDSSNTVYLQMNSLRAEDTAVYYCVRGYVGTSNLWGQGTLVTVSS VL: DIQMTQSPSSLSASVGDRVTITCQASQSIYSSLAWYQQKPGKAPKLLIYDASHLASGVPSRFSGSRYGTDFTLTISSVQPEDAATYYCQGGWYSSAATYVPNTFGGGTKVEVKR | 8.02 |
| v23816 (antibody, human IgG1, kappa, V domains shown, also called humanized 8K22 H3L5) VH: EVQLVESGGGLVQPGGSLRLSCAASGFTISNNYYMCWVRQAPGKGLEWIACIYGGISGRTYYADSAKGRFTISKDSSKNTVYLQMNSLRAEDTAVYYCVRGYVGTSNLWGQGTLVTVSS VL: DIQMTQSPSSLSASVGDRVTITCQASQSIYSSLAWYQQKPGKAPKLLIYDASHLASGVPSRFSGSRYGTDFTLTISSVQPEDAATYYCQGGWYSSAATYVPNTFGGGTKVEVKR | 7.98 |
